Measured myelination, listed per entry.
- Test system: E18 rat cortical neuron-glia co-culture
- assay.text: myelination (MBP fiber length per Olig2+ nucleus), % of 1 µM DAPT response (DMSO = 0) (% of DAPT); higher = more myelination, active = 50 or more
- assay.setup: 5 µM; treatment time: 8 days (DIV5-DIV13)
property.label: myelination

> print(dat)
                                   molecule                              measured.on               val
1  NS(=O)(=O)c1cc2c(cc1C(F)(F)F)NCNS2(=O)=O [Hydroflumethiazide]  E18 rat cortical neuron-glia co-culture  -13.7 (inactive)
2  COCCCOc1ccnc(C[S+]([O-])c2nc3ccccc3[nH]2)c1C (centres undefined)  E18 rat cortical neuron-glia co-culture   10.6 (inactive)
3  C[N+]1(C)CCC(OC(=O)C(O)(c2ccccc2)C2CCCC2)C1 (centres undefined) [Glycopyrrolate]  E18 rat cortical neuron-glia co-culture  -2.31 (inactive)
4  CC1=C(C/C=C(\C)CCC[C@H](C)CCC[C@H](C)CCCC(C)C)C(=O)c2ccccc2C1=O  E18 rat cortical neuron-glia co-culture  -10.2 (inactive)

---

- Test system: E18 rat cortical neuron-glia co-culture
- assay.text: myelination (MBP fiber length per Olig2+ nucleus), % of 1 µM DAPT response (DMSO = 0) (% of DAPT); higher = more myelination, active = 50 or more
- assay.setup: 1 µM; treatment time: 8 days (DIV5-DIV13)
Threshold check on myelination: at or above 9 gives 1, strictly below gives 0.

> print(dat)
                                   compound  group.label
1  CC(C)C(=O)Nc1ccc([N+](=O)[O-])c(C(F)(F)F)c1 [Flutamide]            0
2  CN1CCN(c2c(F)cc3c(=O)c(C(=O)O)cn4c3c2SCC4)CC1            1
3  CCc1c2c(nc3ccc(OC(=O)N4CCC(N5CCCCC5)CC4)cc13)-c1cc3c(c(=O)n1C2)COC(=O)[C@]3(O)CC            1
4  CN[C@H]1CC[C@@H](c2ccc(Cl)c(Cl)c2)c2ccccc21            0
5  C#C[C@]1(O)CC[C@H]2[C@@H]3CCc4cc(O)ccc4[C@H]3CC[C@@]21C            0
6  CC(C)NCC(O)c1ccc(O)c(O)c1 (stereo not drawn)            1
7  CCC(C)n1ncn(-c2ccc(N3CCN(c4ccc(OCC5COC(Cn6cncn6)(c6ccc(Cl)cc6Cl)O5)cc4)CC3)cc2)c1=O (stereo not drawn)            0
8  CC(=O)O[C@]1(C(C)=O)CC[C@H]2[C@@H]3C[C@H](C)C4=CC(=O)CC[C@]4(C)[C@H]3CC[C@@]21C [Medroxyprogesterone acetate]            0

---

- Tested on: E18 rat cortical neuron-glia co-culture
- assay.text: myelination (MBP fiber length per Olig2+ nucleus), % of 1 µM DAPT response (DMSO = 0) (% of DAPT); higher = more myelination, active = 50 or more
- assay.setup: 5 µM; treatment time: 8 days (DIV5-DIV13)
Classify as follows. Reported myelination greater than or equal to 7: T. Reported myelination below: F.

molecule	group.label
Nc1ncnc2c1ncn2[C@@H]1O[C@H](CO)[C@@H](O)[C@H]1O	F
CO[C@H]1/C=C/O[C@@]2(C)Oc3c(C)c(O)c4c(O)c(c5c(nc6cc(C)ccn65)c4c3C2=O)NC(=O)/C(C)=C\C=C\[C@H](C)[C@H](O)[C@@H](C)[C@@H](O)[C@@H](C)[C@H](OC(C)=O)[C@@H]1C	F
CNCCC=C1c2ccccc2CCc2ccccc21	T
CC1(C)C[C@@H]1C(=O)N/C(=C\CCCCSC[C@H](N)C(=O)O)C(=O)O	F
CN1[C@@H](CC(=O)c2ccccc2)CCC[C@H]1C[C@H](O)c1ccccc1	F
C[C@]12CCC(=O)C=C1CC[C@@H]1[C@@H]2[C@@H](O)C[C@@]2(C)[C@H]1CC[C@]2(O)C(=O)COC(=O)CCC(=O)O [Cortisol succinate]	T

Cited source for all entries: the supplement of paper PMC4840960
